Target sequence: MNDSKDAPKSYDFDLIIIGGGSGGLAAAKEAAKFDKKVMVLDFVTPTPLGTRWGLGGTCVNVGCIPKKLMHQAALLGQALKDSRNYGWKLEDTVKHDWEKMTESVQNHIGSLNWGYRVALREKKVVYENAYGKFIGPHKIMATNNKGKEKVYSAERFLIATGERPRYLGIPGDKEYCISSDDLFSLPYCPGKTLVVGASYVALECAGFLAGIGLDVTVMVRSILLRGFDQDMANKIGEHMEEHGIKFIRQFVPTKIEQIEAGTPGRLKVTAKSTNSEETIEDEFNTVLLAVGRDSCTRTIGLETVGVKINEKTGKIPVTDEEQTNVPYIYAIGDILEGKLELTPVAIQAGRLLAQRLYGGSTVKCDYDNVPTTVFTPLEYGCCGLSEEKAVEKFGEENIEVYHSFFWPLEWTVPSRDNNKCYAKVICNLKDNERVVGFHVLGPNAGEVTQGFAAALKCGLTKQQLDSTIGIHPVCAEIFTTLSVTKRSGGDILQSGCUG
measured-endpoint: pIC50
Kindly note that pIC50 refers to -log10 of the concentration in mol/L and answer with the value alone.

Form: compound = [NH2][Pt]([NH2])([Cl])[Cl] [cisplatin] ; pIC50 = 7.65
